- Test system: Rattus norvegicus
- test description: Ability to antagonize metrazole-induced seizures (clonic and tonic) in rats after intraperitoneal injection
- condition summary: ip
// ED50 lookup, one value per entry
measure name: ED50

INSERT INTO assay_data (given_smiles, measure_name, obs_value) VALUES
  ('COc1cccc(-c2ncn3c2c(=O)n(C(C)C)c2ccccc23)c1', 'ED50', '> 50 mg/kg'),
  ('CC(C)(C)NC(=O)N1Cc2c(-c3ccc(F)cc3)ncn2-c2ccccc21', 'ED50', '> 50 mg/kg'),
  ('CC(C)n1c(=O)c2c(-c3ccc(Cl)cc3)ncn2c2ccccc21', 'ED50', '> 50 mg/kg'),
  ('Cc1ccc(-c2ncn3c2C(C)(C)N(C(=O)N(C)C)c2ccccc2-3)cc1', 'ED50', '> 50 mg/kg'),
  ('COc1ccc(-c2ncn3c2c(=O)n(C(C)C)c2cc(F)ccc23)cc1', 'ED50', '> 50 mg/kg'),
  ('CC(C)n1c(=O)c2c(-c3cccc(F)c3)ncn2c2ccccc21', 'ED50', '> 50 mg/kg');
